Data origin: patent US9534035B2

Biological target: ENaC (Homo sapiens, UniProt P37088+P51168+P51170, A314G)
Construct: expressed in transfected cells
Sequence (P37088 1-669): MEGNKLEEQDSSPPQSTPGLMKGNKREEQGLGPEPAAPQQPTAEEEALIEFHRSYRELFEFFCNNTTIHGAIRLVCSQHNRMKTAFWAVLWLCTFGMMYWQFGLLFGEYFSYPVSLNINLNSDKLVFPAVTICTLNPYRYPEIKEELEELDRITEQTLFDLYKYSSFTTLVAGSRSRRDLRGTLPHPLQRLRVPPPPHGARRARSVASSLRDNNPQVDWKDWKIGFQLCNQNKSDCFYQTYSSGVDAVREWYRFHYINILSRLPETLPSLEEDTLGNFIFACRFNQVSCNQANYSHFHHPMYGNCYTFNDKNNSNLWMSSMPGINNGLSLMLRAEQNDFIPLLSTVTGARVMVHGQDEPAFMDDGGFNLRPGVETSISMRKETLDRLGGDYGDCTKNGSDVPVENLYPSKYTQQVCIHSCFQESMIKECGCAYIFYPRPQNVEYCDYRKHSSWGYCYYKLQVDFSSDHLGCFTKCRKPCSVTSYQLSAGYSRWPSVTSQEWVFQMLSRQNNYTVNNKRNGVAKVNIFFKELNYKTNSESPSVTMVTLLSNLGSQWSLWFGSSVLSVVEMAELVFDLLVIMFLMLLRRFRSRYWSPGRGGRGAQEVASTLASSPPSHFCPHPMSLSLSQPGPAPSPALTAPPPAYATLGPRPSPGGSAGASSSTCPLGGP
Sequence (P51168 1-640 A314G): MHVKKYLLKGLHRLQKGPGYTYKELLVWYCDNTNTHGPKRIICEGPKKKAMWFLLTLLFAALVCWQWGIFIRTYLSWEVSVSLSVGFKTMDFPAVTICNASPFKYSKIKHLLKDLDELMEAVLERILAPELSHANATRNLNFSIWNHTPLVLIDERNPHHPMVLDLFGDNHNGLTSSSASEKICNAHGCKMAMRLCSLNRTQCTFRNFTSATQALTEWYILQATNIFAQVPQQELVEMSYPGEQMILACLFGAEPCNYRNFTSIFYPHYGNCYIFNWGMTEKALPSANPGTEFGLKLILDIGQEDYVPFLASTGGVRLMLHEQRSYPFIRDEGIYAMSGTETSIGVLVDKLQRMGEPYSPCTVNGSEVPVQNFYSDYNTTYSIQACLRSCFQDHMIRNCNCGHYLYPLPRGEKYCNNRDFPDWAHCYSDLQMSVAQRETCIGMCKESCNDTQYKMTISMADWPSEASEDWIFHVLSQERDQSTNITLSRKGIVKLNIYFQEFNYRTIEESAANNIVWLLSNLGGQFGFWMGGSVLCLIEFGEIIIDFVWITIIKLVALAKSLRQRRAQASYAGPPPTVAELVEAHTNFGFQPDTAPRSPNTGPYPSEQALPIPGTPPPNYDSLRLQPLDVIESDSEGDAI
Sequence (P51170 1-649): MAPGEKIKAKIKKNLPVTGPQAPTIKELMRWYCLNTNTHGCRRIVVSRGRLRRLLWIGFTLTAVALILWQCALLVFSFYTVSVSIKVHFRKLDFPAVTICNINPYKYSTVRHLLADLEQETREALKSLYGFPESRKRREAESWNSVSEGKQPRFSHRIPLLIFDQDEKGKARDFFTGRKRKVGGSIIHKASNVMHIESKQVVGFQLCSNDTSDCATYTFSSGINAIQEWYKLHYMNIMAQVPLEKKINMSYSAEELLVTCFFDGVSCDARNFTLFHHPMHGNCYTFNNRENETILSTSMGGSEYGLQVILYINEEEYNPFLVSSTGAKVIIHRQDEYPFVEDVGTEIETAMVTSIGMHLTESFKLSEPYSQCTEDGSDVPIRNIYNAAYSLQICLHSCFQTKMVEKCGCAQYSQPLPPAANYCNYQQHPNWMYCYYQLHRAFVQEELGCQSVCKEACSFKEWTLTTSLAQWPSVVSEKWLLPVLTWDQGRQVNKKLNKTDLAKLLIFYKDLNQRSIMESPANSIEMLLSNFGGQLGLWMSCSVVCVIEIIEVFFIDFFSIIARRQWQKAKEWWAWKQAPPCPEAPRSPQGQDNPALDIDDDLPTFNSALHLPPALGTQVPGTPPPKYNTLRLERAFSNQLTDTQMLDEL
Test: membrane potential assay with stable ENaC cell line (CHO)
Type: cell-based
Conditions: ENaC cell line maintained in 90 mM sodium media; read-out: EC50 (approx)
quantityKind: EC50

[Cl-].[Na+] [NaCl, sodium chloride]	~48 mM

Kindly review the next compound as well.
Task: Quick one: EC50 of [Cl-].[Li+] [LiCl, lithium chloride] ?
Result: ~33 mM
